src = the supplement of paper PMC4862054

Test system: MDA-MB-453
Test: normalised viability (% of control), CellTiter-Blue; higher = more viable cells (about 100 = DMSO control)
Settings: incubation time: 72 h
experimental endpoint: normalised viability (%)
Give bare numbers, in %.

N[C@@H](Cc1ccc(N(CCCl)CCCl)cc1)C(=O)O [Melphalan] (29.7 nM) | 110
O=C(c1cc(Cc2n[nH]c(=O)c3ccccc23)ccc1F)N1CCN(C(=O)C2CC2)CC1 [Olaparib] (300 nM) | 98
CCN(CC)CCOc1ccc(C(=C(Cl)c2ccccc2)c2ccccc2)cc1 [Clomifene] (300 nM) | 93.9
COc1cc2c(N3CCN(C(=O)Nc4ccc(OC(C)C)cc4)CC3)ncnc2cc1OCCCN1CCCCC1 [Tandutinib] (30 nM) | 108
COc1cc2c(Oc3ccc(NC(=O)C4(C(=O)Nc5ccc(F)cc5)CC4)cc3F)ccnc2cc1OCCCN1CCOCC1 [Foretinib] (30 nM) | 94.1

// next entry
Look up normalised viability: C[C@@H](C(=O)O)c1ccc(-c2ccccc2)c(F)c1 [Tarenflurbil] (300 nM)
104

###

Test system: HCC1937
Assay: normalised response (% of control), CellTiter-Glo; higher = more viable cells (100 = DMSO, 0 = benzethonium chloride kill control)
Details: incubation time: 72 h
experimental endpoint: normalised response (%)
One number for each entry, in %.

Consider the following illustrative entries.
CCCc1cc(C)[nH]c(=O)c1CNC(=O)c1cc(-c2ccnc(N3CCN(C)CC3)c2)cc2c1cnn2C(C)C [GSK343] (10 nM) | 103
COc1cc(Nc2ncc(F)c(Nc3ccc4c(n3)N(COP(=O)(O)O)C(=O)C(C)(C)O4)n2)cc(OC)c1OC [Fostamatinib] (250 nM) | 94.9
C[C@@H](C(=O)O)c1ccc(-c2ccccc2)c(F)c1 [Tarenflurbil] (1000 nM) | 94.7
C[C@]12C=CC(=O)C=C1CC[C@@H]1[C@@H]2C(=O)C[C@@]2(C)[C@H]1CC[C@]2(O)C(=O)CO [Prednisone] (10 nM) | 95.8
NC(=O)NO [Hydroxyurea] (100 nM) | 96

Hi, could you look up normalised response for each item in my list?
1. CC(C)(C)Cn1c(N)nc2ccc(-c3[nH]c(C(C)(C)C)nc3-c3ccc(F)cc3)nc21 (10 nM)
2. CO[C@H]1C[C@@H]2CC[C@@H](C)[C@@](O)(O2)C(=O)C(=O)N2CCCC[C@H]2C(=O)O[C@H]([C@H](C)C[C@@H]2CC[C@@H](O)[C@H](OC)C2)CC(=O)[C@H](C)/C=C(\C)[C@@H](O)[C@@H](OC)C(=O)[C@H](C)C[C@H](C)/C=C/C=C/C=C/1C [Sirolimus] (0.01 nM)
3. CC(C)C[C@H](NC(=O)[C@H](CCc1ccccc1)NC(=O)CN1CCOCC1)C(=O)N[C@@H](Cc1ccccc1)C(=O)N[C@@H](CC(C)C)C(=O)[C@@]1(C)CO1 [Carfilzomib] (0.1 nM)

95.1
105
105

Hi, could you look up normalised response for each item in my list?
1. CCCCCOC(=O)Nc1nc(=O)n([C@@H]2O[C@H](C)[C@@H](O)[C@H]2O)cc1F [Capecitabine] (1 nM)
2. NC(=O)c1cccc2cn(-c3ccc([C@@H]4CCCNC4)cc3)nc12 [MK-4827] (10 nM)
3. Nc1nc(Cl)nc2c1ncn2[C@@H]1O[C@H](CO)[C@@H](O)[C@@H]1F [Clofarabine] (10 nM)
4. Cn1nnc2c(C(N)=O)ncn2c1=O [Temozolomide] (10 nM)
5. O=C(c1cc(Cc2n[nH]c(=O)c3ccccc23)ccc1F)N1CCN(C(=O)C2CC2)CC1 [Olaparib] (1 nM)
6. Cc1c(C(=O)Nc2ccc(N3C[C@@H](C)O[C@@H](C)C3)nc2)cccc1-c1ccc(OC(F)(F)F)cc1 [Erismodegib] (10 nM)

[98.2, 96.9, 95.8, 95.8, 90.5, 96.3]

###

Consider the following compounds; for each one, report its drug sensitivity score.
Test system: BT-549
Test: drug sensitivity score (DSS), CellTiter-Blue viability (DSS (AUC-based score)); higher = stronger viability inhibition; extreme values may be limits of the assay
Details: incubation time: 72 h
Give bare numbers.

Consider the following illustrative entries.
Nc1nc(Cl)nc2c1ncn2[C@@H]1O[C@H](CO)[C@@H](O)[C@@H]1F | 10.6
O=C(c1cc(Cc2n[nH]c(=O)c3ccccc23)ccc1F)N1CCN(C(=O)C2CC2)CC1 | 0
C[C@]12C=CC(=O)C=C1CC[C@@H]1[C@@H]2C(=O)C[C@@]2(C)[C@H]1CC[C@]2(O)C(=O)CO | 0

Hi, could you look up drug sensitivity score for each item in my list?
1. Cn1nnc2c(C(N)=O)ncn2c1=O [Temozolomide]
2. CC(C)C[C@H](NC(=O)[C@H](CCc1ccccc1)NC(=O)CN1CCOCC1)C(=O)N[C@@H](Cc1ccccc1)C(=O)N[C@@H](CC(C)C)C(=O)[C@@]1(C)CO1

[2.1, 29.2]

###

Consider the following molecules; for each one, report its normalised viability.
Test system: HCC1937
Experiment: normalised viability (% of control), CellTiter-Blue; higher = more viable cells (about 100 = DMSO control)
Conditions: 10 nM; incubation time: 72 h
Lab note: write values as number then unit, every time.

Consider the following illustrative entries.
Nc1nc(Cl)nc2c1ncn2[C@@H]1O[C@H](CO)[C@@H](O)[C@@H]1F | 92.6%
CC/C(=C(\c1ccccc1)c1ccc(OCCN(C)C)cc1)c1ccccc1 | 83.4%
C[C@]12C=CC(=O)C=C1CC[C@@H]1[C@@H]2C(=O)C[C@@]2(C)[C@H]1CC[C@]2(O)C(=O)CO | 95.7%

// next entry
Look up normalised viability: CCN(CC)CCOc1ccc(C(=C(Cl)c2ccccc2)c2ccccc2)cc1
115%

###

System: MCF-10A
Test: normalised response (% of control), CellTiter-Glo; higher = more viable cells (100 = DMSO, 0 = benzethonium chloride kill control)
Conditions: incubation time: 72 h
experimental endpoint: normalised response (%)
Numbers only, in %.

Consider the following illustrative entries.
Cc1cc2c(F)c(Oc3ncnn4cc(OC[C@@H](C)O)c(C)c34)ccc2[nH]1 [Brivanib] (1000 nM) | 108
CC(C)n1nc(-c2ccc3oc(N)nc3c2)c2c(N)ncnc21 [INK128] (1000 nM) | 25.1
CCCc1cc(C)[nH]c(=O)c1CNC(=O)c1cc(-c2ccnc(N3CCN(C)CC3)c2)cc2c1cnn2C(C)C [GSK343] (10000 nM) | 97.5

Hi, could you look up normalised response for each item in my list?
1. Cc1c(C(=O)Nc2ccc(N3C[C@@H](C)O[C@@H](C)C3)nc2)cccc1-c1ccc(OC(F)(F)F)cc1 [Erismodegib] (10000 nM)
2. CCc1c(C(=O)C(N)=O)c2c(OCC(=O)O)cccc2n1Cc1ccccc1 [Varespladib] (10000 nM)
3. CN1CCc2c(c3ccccc3n2Cc2ccc(C(=O)NO)cc2)C1 [Tubastatin A] (10000 nM)
4. CC(C)(C)Cn1c(N)nc2ccc(-c3[nH]c(C(C)(C)C)nc3-c3ccc(F)cc3)nc21 (10000 nM)
5. COc1cc2c(cc1-c1c(C)noc1C)ncc1[nH]c(=O)n([C@H](C)c3ccccn3)c12 [I-BET151] (10000 nM)

1. 92
2. 100
3. 98.5
4. 43.6
5. 54.5

###

Tested on: MDA-MB-436
Experiment: normalised response (% of control), CellTox Green; higher = less cell death (100 = DMSO, 0 = benzethonium chloride kill control)
Conditions: incubation time: 72 h
experimental endpoint: normalised response (%)
Numbers only, in %.

Consider the following illustrative entries.
CC(C)C(=O)Nc1ccc([N+](=O)[O-])c(C(F)(F)F)c1 [Flutamide] (100 nM) | 82
C[C@@H]1C[C@H]2[C@@H]3CCC4=CC(=O)C=C[C@]4(C)[C@@]3(F)[C@@H](O)C[C@]2(C)[C@@]1(O)C(=O)CO [Dexamethasone] (1000 nM) | 81.5
CCCCCOC(=O)Nc1nc(=O)n([C@@H]2O[C@H](C)[C@@H](O)[C@H]2O)cc1F [Capecitabine] (10000 nM) | 103

// next entry
# get_value(readout= normalised response, system= MDA-MB-436) for O=NN(CCCl)C(=O)NC1CCCCC1 [Lomustine] (100 nM)
108

###

Consider the following compounds; for each one, report its normalised response.
System: DU-4475
Test: normalised response (% of control), CellTiter-Glo; higher = more viable cells (100 = DMSO, 0 = benzethonium chloride kill control)
Settings: incubation time: 72 h
One number for each entry, in %.

Consider the following illustrative entries.
C[C@@H](C(=O)O)c1ccc(-c2ccccc2)c(F)c1 [Tarenflurbil] (1 nM) | 95.6
NC(=O)c1cccc2cn(-c3ccc([C@@H]4CCCNC4)cc3)nc12 [MK-4827] (1 nM) | 98.1
O=C(c1cc(Cc2n[nH]c(=O)c3ccccc23)ccc1F)N1CCN(C(=O)C2CC2)CC1 [Olaparib] (1000 nM) | 92.5

Hi, could you look up normalised response for each item in my list?
1. CC[C@H](CC#N)OC(=O)N[C@@H](C)c1cccc(NC(=O)Nc2ccc(-c3cnco3)c(OC)c2)c1 [AVN944] (1 nM)
2. CC[C@@H]1C(=O)N(C)c2cnc(Nc3ccc(C(=O)N[C@H]4CC[C@H](N5CCN(CC6CC6)CC5)CC4)cc3OC)nc2N1C(C)C [Volasertib] (100 nM)

97.9
49.1
